# Procedure summary: Protein binding in Sprague-Dawley rat plasma at […], iv administered as infusion for 10 mins by LC-MS analysis
# Format: ADME, organism-based
# Settings: dose 1.1 mg/kg, read-out: PPB (converted)
Measure name: fraction unbound at 10 min
Provide a numeric answer; units are not to be included.

Write down fraction unbound at 10 min measured for item Cc1cc(NC2CCc3ccc(Br)cc3C2)n2nc(C(C)(F)F)nc2n1 (stereo in doubt)
0.028

* * *

# Procedure summary: Apparent half-life in Sprague-Dawley rat at 1.9 mg/kg, iv administered as infusion for 10 mins by LC-MS analysis
# Type: ADME, organism-based
# Settings: in vivo, read-out: t1/2(app) (converted)
Measure name: half-life
The answer consists of two parts: a number and, after it, its unit.

Entry Cc1cc(NC2CCc3cc(Cl)ccc3C2)n2nc(C(C)(F)F)nc2n1 (stereo in doubt) needs its half-life filled in; supply it.
7.1 h

* * *

# Procedure summary: Intrinsic clearance in human pooled liver microsomes assessed per mg protein at 1 uM by LC-MS analysis
# Format: ADME, Microsome
# Settings: microsomes, 1 µM
# maps each entry to its log10(microsomal intrinsic clearance)
The base-10 logarithm of microsomal intrinsic clearance, taken with microsomal intrinsic clearance in µL/min, is what appears here.

Cc1cc(NC2Cc3c(F)ccc(F)c3C2)n2nc(C(C)(F)F)nc2n1 | 1.52

Turning to the following compound.
Item Cc1cc(NC2Cc3ccccc3C2)n2nc(C(C)(F)F)nc2n1 : provide log10(microsomal intrinsic clearance)
1.38

* * *

# Procedure summary: Protein binding in Sprague-Dawley rat plasma at 1.8 mg/kg, iv administered as infusion for 10 mins by LC-MS analysis
# Assay type: ADME, organism-based
# Settings: read-out: PPB (converted)
Measure name: fraction unbound at 10 min

Read off the recorded fraction unbound at 10 min for Cc1cc(NC2Cc3cc(F)c(F)cc3C2)n2nc(C(C)(F)F)nc2n1
0.058

* * *

# Procedure summary: Solubility of compound in FaSSIF at pH 6.5 measured after 5 to 6 hrs by HPLC-UV based analysis
Decide by solubility: equal to or exceeding 20 µg/mL means met, less means not met.

Completed entries (count: 4):
Cc1cc(NC2CCc3cc(Br)ccc3C2)n2nc(C(C)(F)F)nc2n1 (stereo in doubt) | not met
Cc1cc(NC2CCc3ccc(Br)cc3C2)n2nc(C(C)(F)F)nc2n1 (stereo in doubt) | not met
Cc1cc(N[C@H]2CCc3ccc(Cl)cc3C2)n2nc(C(C)(F)F)nc2n1 | not met
Cc1cc(NC2Cc3cc(F)c(F)cc3C2)n2nc(C(C)(F)F)nc2n1 | not met

# next compound below
I'd appreciate it if you could say whether Cc1cc(NC2CCc3cc(Cl)ccc3C2)n2nc(C(C)(F)F)nc2n1 (stereo in doubt) has solubility at least equal to 20 µg/mL.
met

* * *

# Procedure summary: AUC (0 to infinity) in Sprague-Dawley rat at 18.2 mg/kg, po measured over 24 hrs by LC-MS analysis
# Format: ADME, organism-based
# Set-up: route oral, dose 18.2 mg/kg, time >24
# Settings: in vivo
Measure name: AUC(0-inf) (µM·h)
Give your result in µM·h as a bare value.

Provide only the value of recorded AUC(0-inf) for Cc1cc(NC2CCc3cc(Cl)ccc3C2)n2nc(C(C)(F)F)nc2n1 (stereo in doubt)
227
